Test system Mu-type opioid receptor (Rattus norvegicus, UniProt P33535), pIC50 listed for each of the compounds.
Please note pIC50 is a logarithmic value: minus log10 of concentration in mol/L. Answer with that number alone.

CSCC[C@H](NC(=O)[C@H](Cc1ccccc1)NC(O)CNC(=O)CNC(=O)[C@@H](N)Cc1ccc(O)cc1)C(N)=O (some centres not stated) = 7.47

Next compound, please.
Need pIC50, item CSCC[C@H](NC(=O)[C@H](Cc1ccccc1)N(N)C(=O)CNC(=O)CN(N)C(=O)[C@H](Cc1ccc(ON)cc1)NN)C(=O)N[C@H](C(N)=O)C(C)C
6.97

----------
Experimental target: Mu-type opioid receptor (Rattus norvegicus)
Measurement protocol: Concentration required for 50% inhibition of [3H]DAGO binding to mu opioid receptor in crude rat brain homogenates
Format: tissue-based
pIC50: −log10 of the molar value.
# if value of pIC50 reaches 7, tag met; if it stays below, tag not met

// below: answered substances
H-YGGFMT-NH2 = met
H-YGGFMD-NH2 = not met

Proceed to the following item.
Exam item: decide whether the reported pIC50 for H-YGGFLA-NH2 is at least 7.
met

----------
Experimental target: Mu-type opioid receptor (Rattus norvegicus)
Measurement protocol: Concentration required for 50% inhibition of [3H]DAGO binding to mu opioid receptor in crude rat brain homogenates
Assay type: tissue-based
Assay metric: IC50 (nM)
Respond numerically; units are nM and should not be typed.

Below, 10 substances whose answers are already recorded.
H-YGGFME-NH2 = 204
H-YGGFMF-NH2 = 223
H-YGGFMH-NH2 = 37
H-YGGFMQ-NH2 = 40
H-YGGFLG-NH2 = 59
H-YGGFML-NH2 = 35
H-YGGFLY-NH2 = 77
H-YGGFMM-NH2 = 30
H-YGGFMP-NH2 = 57
H-YGGFLM-NH2 = 112

Can you look up the measured IC50 of H-YGGFMN-NH2 for me?
28

And the next one, H-YGGFMI-NH2 ?
80

Okay, and H-YGGFMS-NH2 ?
34

Also, H-YGGFLD-NH2 please.
214

Continue with H-YGGFLK-NH2
201

And the next one, H-YGGFMR-NH2 ?
46

Similarly, H-YGGFMK-NH2 ?
41

Same for H-YGGFLL-NH2
98

Check H-YGGFLH-NH2 too.
141

----------
Experimental target: Mu-type opioid receptor (Rattus norvegicus, UniProt P33535)
Sequence (P33535 whole entry): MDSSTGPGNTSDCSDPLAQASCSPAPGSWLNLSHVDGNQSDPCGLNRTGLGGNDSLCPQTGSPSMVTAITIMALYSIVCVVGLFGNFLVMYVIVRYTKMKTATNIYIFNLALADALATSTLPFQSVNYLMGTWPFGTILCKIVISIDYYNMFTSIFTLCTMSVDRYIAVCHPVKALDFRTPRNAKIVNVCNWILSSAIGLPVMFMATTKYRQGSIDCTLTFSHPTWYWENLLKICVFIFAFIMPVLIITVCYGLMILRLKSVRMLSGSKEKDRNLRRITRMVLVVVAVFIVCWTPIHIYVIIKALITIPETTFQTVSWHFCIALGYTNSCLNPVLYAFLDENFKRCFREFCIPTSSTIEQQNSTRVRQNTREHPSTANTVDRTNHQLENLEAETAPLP
Measurement protocol: Concentration required for 50% inhibition of [3H]DAGO binding to mu opioid receptor in crude rat brain homogenates
Type: tissue-based
Assay metric: IC50 (nM)
Kindly answer with a numeric value in nM, unit omitted.

The following substances have reported results that may help.
H-YGGFLN-NH2 = 78
H-YGGFLP-NH2 = 108

Which IC50 value is on record for H-YGGFLS-NH2 ?
65
